Reported Papp at 0.5 mg/mL is given for each of the following compounds.
ASSAY_TEXT: in vitro
CONDITION_NOTES: pig, PAMPA, pH 7.4

>>> observed("COC(=O)C(C)c1ccc(C(F)C(C)C)cc1 (stereo not shown)")
"> 10 ×10⁻⁶ cm/s"

Entry COC(=O)C(C)c1ccc(C(F)C(C)(C)F)cc1 (stereo not shown) — recorded Papp at 0.5 mg/mL = > 10 ×10⁻⁶ cm/s

Entry Cn1c(=O)c2c(ncn2C)n(C)c1=O [Caffeine, reference compound] — recorded Papp at 0.5 mg/mL = 1.24 ×10⁻⁶ cm/s

Entry COC(=O)C(C)c1ccc(CC(C)(C)F)cc1 (stereo not shown) — recorded Papp at 0.5 mg/mL = > 10 ×10⁻⁶ cm/s
